Cited source for all entries: patent EP4582447A1

# MEASURED_TARGET: T1, Human VEGFA165 (human, UniProt P15692-4 27-191)
# T1 construct: treated as the same molecule; also called antigen VEGFA
# T1 sequence (P15692 other isoform, or with tags, fused parts or gaps limits assumed): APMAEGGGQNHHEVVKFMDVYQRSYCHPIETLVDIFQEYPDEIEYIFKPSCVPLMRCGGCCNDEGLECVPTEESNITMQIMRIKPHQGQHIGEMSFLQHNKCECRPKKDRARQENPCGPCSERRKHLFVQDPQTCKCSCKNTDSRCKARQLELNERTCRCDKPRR
# EXPERIMENTAL_DETAILS: competition ELISA on coated VEGFA, competitor VEGFR2-ECD-Fc 2 nM

>  <BINDER>
V43-4m (VHH, Humanized V43) VHH: EVQLVESGGGLVQPGGSLRLSCAASGRTFTSYTMGWFRQAPGKEREFVVAISKGGYKYDSVSLEARFTISRDNAKNTVYLQMNSLRPEDTAVYYCAGTRAYGSSRLRLANTYEYWGQGTLVTVSS

>  <IC50 [nM]>
35.5

$$$$
>  <BINDER>
V1-SA3 (VHH, Humanized V1) VHH: EVQLVESGGGLVQPGGSLRLSCAASGRTFSSYTMGWFRQAPGKEREFVVAISKGGYKYDSVSLEARFTISRDNAKNTVYLQMNSLRAEDTAVYYCAATRAYGSSRLRLADTYEYWGQGTLVTVSS

>  <IC50 [nM]>
26.7

$$$$
>  <BINDER>
V1 (VHH, also called candidate antibody V1; antibody V1) VHH: QLQLVESGGGSVQPGGSLRLSCEVSGRTFSSYTMGWFRQAPGKEREFVVAISKGGYKYDSVSLEARFTISKDNTKNTVYLQMNSLKPEDTAVYYCAATRAYGSSRLRLADTYEYWGQGTQVTVSS

>  <IC50 [nM]>
26.4

$$$$
>  <BINDER>
V1-SA1 (VHH, Humanized V1; also called humanized antibody V1-SA1; monovalent nanobody V1-SA1) VHH: EVQLVESGGGLVQPGGSLRLSCAVSGRTFSSYTMGWFRQAPGKEREFVVAISKGGYKYDSVSLEARFTISRDNAKNTVYLQMNSLRPEDTAVYYCAATRAYGSSRLRLADTYEYWGQGTLVTVSS

>  <IC50 [nM]>
22.5

$$$$
